System: tumor cells
Test: Median lethal dosage, summary over tumor cells
Assay type: cell-based
Conditions: vast majority of the tumor cells of Table 1; read-out: median lethal dosages against tumor cells
pIC50: −log10 of the molar value.
Property Name: pIC50

CC[n+]1c(-c2ccccc2)c2cc(N)ccc2c2ccc(N)cc21 [ethidium bromide, Ethidium bromide]    > 5.00

* * *

Test system: AGS Gastric cancer
Experiment: Median lethal dosage (IC50) against tumor cell lines
Type: cell-based
Conditions: AGS gastric cancer tumor cells
Property Name: IC50 (nM)

CC[n+]1c(-c2ccccc2)c2cc(N)ccc2c2ccc(N)cc21 [ethidium bromide, Ethidium bromide]    710

* * *

Test system: N2A Neuroglioma
Test: Median lethal dosage (IC50) against tumor cell lines
Type: cell-based
Conditions: N2A neuroglioma tumor cells
Property Name: IC50 (µM)

CC[n+]1c(-c2ccccc2)c2cc(N)ccc2c2ccc(N)cc21 [ethidium bromide, Ethidium bromide]    15.7
